pIC50 data for Collagenase 3 (Homo sapiens) follow.
Answers are plain numbers, as −log10 of the molar value.

Recorded pIC50, per entry:
COc1ccc(S(=O)(=O)N2CCN(C(=O)N3CCN(C)CC3)CC2C(=O)NO)cc1 (stereo not given) | 8.39
COc1ccc(S(=O)(=O)N2CCN(C(=O)N(C)Cc3ccccc3)CC2C(=O)NO)cc1 (stereo not given) | 8.74
COc1ccc(S(=O)(=O)N2CCN(C(C)=O)CC2C(=O)NO)cc1 (stereo not given) | 9.00
CCCN(CC1CC1)C(=O)N1CCN(S(=O)(=O)c2ccc(OC)cc2)C(C(=O)NO)C1 (stereo not given) | 8.96
COc1ccc(S(=O)(=O)N2CCN(C(=O)C3CCCCC3)CC2C(=O)NO)cc1 (stereo not given) | 8.82

Quick request: pIC50 for each listed item, please.
1. COc1ccc(S(=O)(=O)N2CCN(C(=O)Nc3cccc(OC)c3)CC2C(=O)NO)cc1 (stereo not given)
2. COc1ccc(S(=O)(=O)N2CCN(C(=O)N3CCOCC3)CC2C(=O)NO)cc1 (stereo not given)
3. COc1ccc(S(=O)(=O)N2CCN(S(=O)(=O)c3c(C)noc3C)CC2C(=O)NO)cc1 (stereo not given)
4. COc1ccc(S(=O)(=O)N2CCN(C(=O)c3ccco3)CC2C(=O)NO)cc1 (stereo not given)
5. COc1ccc(S(=O)(=O)N2CCN(C(=O)c3cccs3)CC2C(=O)NO)cc1 (stereo not given)

output:
8.55
7.27
8.89
8.60
8.72

###

- target: UniProtKB P08254
value.kind: log10 of IC50 (log10 of the value in nM)
Heads up: the numbers are on a log10 scale; they represent IC50 in nM.

COc1ccc(S(=O)(=O)N2CCN(C(=O)c3c(-c4ccccc4)noc3C)CC2C(=O)NO)cc1 (centres undefined) | 2.61
CCCN(CC1CC1)C(=O)N1CCN(S(=O)(=O)c2ccc(OC)cc2)C(C(=O)NO)C1 (centres undefined) | 1.81
COc1ccc(S(=O)(=O)N2CCN(S(=O)(=O)c3sc(N)nc3C)CC2C(=O)NO)cc1 (centres undefined) | 0.40
CCCCCCNC(=O)N1CCN(S(=O)(=O)c2ccc(OC)cc2)C(C(=O)NO)C1 (centres undefined) | 1.45
COc1ccc(S(=O)(=O)N2CCN(C(=O)OC(C)(C)C)CC2C(=O)NO)cc1 (centres undefined) | 1.78
COc1ccc(S(=O)(=O)N2CCN(C(N)=O)CC2C(=O)NO)cc1 (centres undefined) | 1.30
COc1ccc(S(=O)(=O)N2CCN(C(=O)c3cccnc3)CC2C(=O)NO)cc1 (centres undefined) | 2.26
COCCN(CCOC)C(=O)N1CCN(S(=O)(=O)c2ccc(Br)cc2)C(C(=O)NO)C1 (centres undefined) | 2.59
COc1ccc(S(=O)(=O)N2CCN(C(=O)[C@@H](O)C(C)C)CC2C(=O)NO)cc1 (some centres undefined) | 1.78
CCOCCCOC(=O)N1CCN(S(=O)(=O)c2ccc(OC)cc2)C(C(=O)NO)C1 (centres undefined) | 0.72

Quick request: log10 of IC50 for each listed item, please.
1. COc1ccc(S(=O)(=O)N2CCN(S(=O)(=O)c3ccc(OC)cc3)C(C(=O)NO)C2)cc1 (centres undefined)
2. COc1ccc(S(=O)(=O)N2CCN(C(=O)NCc3ccccc3)CC2C(=O)NO)cc1 (centres undefined)
3. COc1ccc(S(=O)(=O)N2CCN(C(=O)N(C)Cc3ccccc3)CC2C(=O)NO)cc1 (centres undefined)
4. COc1ccc(S(=O)(=O)N2CCN(C(=O)OCc3cccnc3)CC2C(=O)NO)cc1 (centres undefined)
5. COc1ccc(S(=O)(=O)N2CCN(S(=O)(=O)c3c(C)noc3C)CC2C(=O)NO)cc1 (centres undefined)
6. COc1ccc(S(=O)(=O)N2CCN(C(=O)c3ccco3)CC2C(=O)NO)cc1 (centres undefined)
7. COc1ccc(S(=O)(=O)N2CCN(Cc3ccccc3)CC2C(=O)NO)cc1 (centres undefined)
8. COc1ccc(S(=O)(=O)N2CCN(C(=O)COc3ccccc3)CC2C(=O)NO)cc1 (centres undefined)

output:
1. 1.11
2. 1.23
3. 1.58
4. 0.95
5. 0.51
6. 0.88
7. 1.88
8. 0.98

input: Give the measured log10 of IC50 of COc1ccc(S(=O)(=O)N2CCN(C(=O)N3CCN(C)CC3)CC2C(=O)NO)cc1 (centres undefined) .
output: 2.06

###

- target: Stromelysin-1 (Homo sapiens, UniProt P08254)
- Sequence (P08254 whole entry): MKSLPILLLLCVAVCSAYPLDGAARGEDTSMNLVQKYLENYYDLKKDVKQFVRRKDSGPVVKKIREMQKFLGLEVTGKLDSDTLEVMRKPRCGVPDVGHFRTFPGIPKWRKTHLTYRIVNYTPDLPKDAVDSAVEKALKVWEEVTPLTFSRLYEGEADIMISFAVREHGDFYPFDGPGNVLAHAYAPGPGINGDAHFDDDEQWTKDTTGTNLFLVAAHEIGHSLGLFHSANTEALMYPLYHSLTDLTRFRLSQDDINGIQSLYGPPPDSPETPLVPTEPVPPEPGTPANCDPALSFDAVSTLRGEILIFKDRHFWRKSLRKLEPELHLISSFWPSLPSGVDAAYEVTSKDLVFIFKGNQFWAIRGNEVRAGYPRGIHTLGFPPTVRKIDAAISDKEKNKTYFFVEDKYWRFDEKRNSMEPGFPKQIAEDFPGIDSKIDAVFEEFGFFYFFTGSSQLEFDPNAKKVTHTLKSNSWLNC
value.kind: IC50 (nM)
Give bare numbers, in nM.

Recorded IC50, per entry:
COc1ccc(S(=O)(=O)N2CCN(C(=O)c3cccs3)CC2C(=O)NO)cc1 (centres undefined) | 15
COc1ccc(S(=O)(=O)N2CCN(C(=O)C3CCCCC3)CC2C(=O)NO)cc1 (centres undefined) | 27
COc1ccc(S(=O)(=O)N2CCN(C(=O)c3snnc3C)CC2C(=O)NO)cc1 (centres undefined) | 173

Now turn to the next compound.
input: Give the measured IC50 of COc1ccc(S(=O)(=O)N2CCN(C(=O)N3CCOCC3)CC2C(=O)NO)cc1 (centres undefined) .
output: 124

###

- target: Matrix metalloproteinase-9 (Homo sapiens, UniProt P14780)
- Sequence (P14780 whole entry): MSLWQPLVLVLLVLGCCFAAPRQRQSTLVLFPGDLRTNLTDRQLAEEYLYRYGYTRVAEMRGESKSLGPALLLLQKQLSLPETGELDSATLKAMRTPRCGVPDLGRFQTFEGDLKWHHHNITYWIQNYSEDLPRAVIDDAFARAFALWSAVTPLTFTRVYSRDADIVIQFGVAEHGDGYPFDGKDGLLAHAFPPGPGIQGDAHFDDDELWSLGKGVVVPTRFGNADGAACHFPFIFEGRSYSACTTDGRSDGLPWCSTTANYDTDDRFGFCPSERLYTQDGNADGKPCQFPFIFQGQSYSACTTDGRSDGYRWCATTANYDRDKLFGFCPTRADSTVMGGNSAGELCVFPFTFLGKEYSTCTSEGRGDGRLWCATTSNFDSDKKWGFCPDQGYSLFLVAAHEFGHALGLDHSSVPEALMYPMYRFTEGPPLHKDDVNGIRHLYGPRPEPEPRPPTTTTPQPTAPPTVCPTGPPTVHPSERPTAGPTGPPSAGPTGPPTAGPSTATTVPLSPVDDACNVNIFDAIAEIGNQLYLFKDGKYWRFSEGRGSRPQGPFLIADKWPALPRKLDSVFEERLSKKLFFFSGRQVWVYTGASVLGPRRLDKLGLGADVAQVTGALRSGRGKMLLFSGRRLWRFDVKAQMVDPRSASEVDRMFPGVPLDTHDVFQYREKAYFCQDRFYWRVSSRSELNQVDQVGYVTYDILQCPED
Please assign class 0 whenever IC50 is at or above 6 nM, and class 1 whenever it is below.

Solved cases below.
COc1ccc(S(=O)(=O)N2CCN(C(=S)NCc3ccccc3)CC2C(=O)NO)cc1 (stereo unspecified) | class 0
COc1ccc(S(=O)(=O)N2CCN(C)CC2C(=O)NO)cc1 (stereo unspecified) | class 0
COc1ccc(S(=O)(=O)N2CCN(S(=O)(=O)c3sc(N)nc3C)CC2C(=O)NO)cc1 (stereo unspecified) | class 1

input: hey, is IC50 for COc1ccc(S(=O)(=O)N2CCN(S(=O)(=O)c3ccc(OC)cc3)C(C(=O)NO)C2)cc1 (stereo unspecified) lower than 6 nM or not?
output: class 1

input: # repeat for COc1ccc(S(=O)(=O)N2CCN(C(=O)N3CCN(C)CC3)CC2C(=O)NO)cc1 (stereo unspecified)
output: class 1
